Every entry's value here was drawn from PubChem BioAssay AID1963984.

- Tested on: 233499-124-R-J3-PDC spheroids with HUVEC/MSC, viability
- EXPERIMENT DESCRIPTION: Anticancer human tumor 233499-124-R-J3-PDC patient-derived colon adenocarcinoma cell line growth inhibition [PI3K]
- SETUP CONDITIONS: second compound 3.16 µM; first compound 0.000316 µM; hits give low values
REPORTED METRIC: viability, T/C

Reported viability, T/C of CC(C)n1nc(-c2ccc3oc(N)nc3c2)c2c(N)ncnc21 + Cc1nc(NC(=O)N2CCCC2C(N)=O)sc1-c1ccnc(C(C)(C)C(F)(F)F)c1 : 61.2%

Reported viability, T/C of CC(C)n1nc(-c2ccc3oc(N)nc3c2)c2c(N)ncnc21 + CC(Nc1ncnc2nc[nH]c12)c1cc2cccc(Cl)c2c(=O)n1-c1ccccc1 : 83.4%

Reported viability, T/C of CC(=O)c1c(C)c2cnc(Nc3ccc(N4CCNCC4)cn3)nc2n(C2CCCC2)c1=O + Cc1nc(NC(=O)N2CCCC2C(N)=O)sc1-c1ccnc(C(C)(C)C(F)(F)F)c1 : 53.3%

----------
- System: 233499-124-R-J3-PDC spheroids with HUVEC/MSC, viability
- EXPERIMENT DESCRIPTION: Anticancer human tumor 233499-124-R-J3-PDC cell line growth inhibition [PI3K];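 note: spheroids exposed to agents for seven days before readout; percent viability relative to DMSO vehicle control taken as 100%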
- SETUP CONDITIONS: second compound 0.1 µM; first compound 0.1 µM; hits give low values
- Text: Combinatorial screen of targeted agents with the PI3K inhibitors inavolisib, alpelisib, duvelisib, and copanlisib in multi-cell type tumor spheroids A high-throughput screen of multi-cell type tumor spheroids was designed to identify active combinations of targeted small molecules and PI3K pathway inhibitors. […] Compounds. […] If the clinical Cmax for an agent had not been determined, the highest concentration tested was 10 microM. […]
REPORTED METRIC: viability, T/C (%)
Dear colleague, please return just the value in %, with no unit written.

Reported viability, T/C of CC(C)n1nc(-c2ccc3oc(N)nc3c2)c2c(N)ncnc21 + Cc1nc(NC(=O)N2CCCC2C(N)=O)sc1-c1ccnc(C(C)(C)C(F)(F)F)c1 : 45.1

Reported viability, T/C of CCCS(=O)(=O)Nc1ccc(F)c(C(=O)c2c[nH]c3ncc(-c4ccc(Cl)cc4)cc23)c1F + Cc1nc(NC(=O)N2CCCC2C(N)=O)sc1-c1ccnc(C(C)(C)C(F)(F)F)c1 : 109

Reported viability, T/C of CC(=O)c1c(C)c2cnc(Nc3ccc(N4CCNCC4)cn3)nc2n(C2CCCC2)c1=O + CC(Nc1ncnc2nc[nH]c12)c1cc2cccc(Cl)c2c(=O)n1-c1ccccc1 : 82.6

Reported viability, T/C of CNC(=O)c1ccc(N2C(=S)N(c3ccc(C#N)c(C(F)(F)F)c3)C(=O)C2(C)C)cc1F + CC(Nc1ccc2c(c1)OCCn1cc(N3C(=O)OCC3C(F)F)nc1-2)C(N)=O : 71.8

Reported viability, T/C of CCCS(=O)(=O)Nc1ccc(F)c(C(=O)c2c[nH]c3ncc(-c4ccc(Cl)cc4)cc23)c1F + CC(Nc1ccc2c(c1)OCCn1cc(N3C(=O)OCC3C(F)F)nc1-2)C(N)=O : 83.9

Reported viability, T/C of C#Cc1c(F)ccc2cc(O)cc(-c3ncc4c(N5CC6CCC(C5)N6)nc(OCC56CCCN5CC(F)C6)nc4c3F)c12 (stereo not given) + Cc1nc(NC(=O)N2CCCC2C(N)=O)sc1-c1ccnc(C(C)(C)C(F)(F)F)c1 : 107

Reported viability, T/C of CC(C)NCC(C(=O)N1CCN(c2ncnc3c2C(C)CC3O)CC1)c1ccc(Cl)cc1 (stereo not given) + Cc1nc(NC(=O)N2CCCC2C(N)=O)sc1-c1ccnc(C(C)(C)C(F)(F)F)c1 : 94.7

Reported viability, T/C of CC(=O)c1c(C)c2cnc(Nc3ccc(N4CCNCC4)cn3)nc2n(C2CCCC2)c1=O + CC(Nc1ccc2c(c1)OCCn1cc(N3C(=O)OCC3C(F)F)nc1-2)C(N)=O : 65.2

Reported viability, T/C of C[C@@H](NC(=O)c1ncnc(N)c1Cl)c1ncc(C(=O)Nc2cc(C(F)(F)F)c(Cl)cn2)s1 + COc1c(OCCCN2CCOCC2)ccc2c3n(c(=NC(=O)c4cnc(N)nc4)nc12)CCN3 : 79.4

Reported viability, T/C of CC(C)NCC(C(=O)N1CCN(c2ncnc3c2C(C)CC3O)CC1)c1ccc(Cl)cc1 (stereo not given) + COc1c(OCCCN2CCOCC2)ccc2c3n(c(=NC(=O)c4cnc(N)nc4)nc12)CCN3 : 76.4

Reported viability, T/C of Cn1nccc1Nc1nccc(-c2ccn(C(CO)c3ccc(Cl)c(F)c3)c(=O)c2)n1 (stereo not given) + CC(Nc1ccc2c(c1)OCCn1cc(N3C(=O)OCC3C(F)F)nc1-2)C(N)=O : 77.3

Reported viability, T/C of C[C@@H](NC(=O)c1ncnc(N)c1Cl)c1ncc(C(=O)Nc2cc(C(F)(F)F)c(Cl)cn2)s1 + CC(Nc1ccc2c(c1)OCCn1cc(N3C(=O)OCC3C(F)F)nc1-2)C(N)=O : 84.6

Reported viability, T/C of CC1(C)CCC(Nc2ncc(C(F)(F)F)c(-c3c[nH]c4c(P(C)(C)=O)c(C#N)ccc34)n2)CN1 (stereo not given) + Cc1nc(NC(=O)N2CCCC2C(N)=O)sc1-c1ccnc(C(C)(C)C(F)(F)F)c1 : 41.4

Reported viability, T/C of CC1(C)CCC(Nc2ncc(C(F)(F)F)c(-c3c[nH]c4c(P(C)(C)=O)c(C#N)ccc34)n2)CN1 (stereo not given) + CC(Nc1ncnc2nc[nH]c12)c1cc2cccc(Cl)c2c(=O)n1-c1ccccc1 : 50.4

Reported viability, T/C of Cn1ncnc1[C@H]1c2n[nH]c(=O)c3cc(F)cc(c23)N[C@@H]1c1ccc(F)cc1 + COc1c(OCCCN2CCOCC2)ccc2c3n(c(=NC(=O)c4cnc(N)nc4)nc12)CCN3 : 66.7

----------
- Tested on: 233499-124-R-J3-PDC spheroids with HUVEC/MSC, viability
- EXPERIMENT DESCRIPTION: Anticancer human tumor 233499-124-R-J3-PDC cell line growth inhibition [PI3K];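 note: spheroids exposed to agents for seven days before readout; percent viability relative to DMSO vehicle control taken as 100%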
- SETUP CONDITIONS: second compound 0.0316 µM; first compound 0.000316 µM; hits give low values
REPORTED METRIC: viability, T/C (%)
Dear colleague, please return just the value in %, with no unit written.

Reported viability, T/C of Cn1ncnc1[C@H]1c2n[nH]c(=O)c3cc(F)cc(c23)N[C@@H]1c1ccc(F)cc1 + CC(Nc1ncnc2nc[nH]c12)c1cc2cccc(Cl)c2c(=O)n1-c1ccccc1 : 90.9

Reported viability, T/C of CC(=O)c1c(C)c2cnc(Nc3ccc(N4CCNCC4)cn3)nc2n(C2CCCC2)c1=O + CC(Nc1ncnc2nc[nH]c12)c1cc2cccc(Cl)c2c(=O)n1-c1ccccc1 : 99

Reported viability, T/C of Cn1ncnc1[C@H]1c2n[nH]c(=O)c3cc(F)cc(c23)N[C@@H]1c1ccc(F)cc1 + CC(Nc1ccc2c(c1)OCCn1cc(N3C(=O)OCC3C(F)F)nc1-2)C(N)=O : 92.6

Reported viability, T/C of Cn1ncnc1[C@H]1c2n[nH]c(=O)c3cc(F)cc(c23)N[C@@H]1c1ccc(F)cc1 + COc1c(OCCCN2CCOCC2)ccc2c3n(c(=NC(=O)c4cnc(N)nc4)nc12)CCN3 : 94

Reported viability, T/C of CC(C)n1nc(-c2ccc3oc(N)nc3c2)c2c(N)ncnc21 + CC(Nc1ncnc2nc[nH]c12)c1cc2cccc(Cl)c2c(=O)n1-c1ccccc1 : 108

Reported viability, T/C of CC(C)n1nc(-c2ccc3oc(N)nc3c2)c2c(N)ncnc21 + Cc1nc(NC(=O)N2CCCC2C(N)=O)sc1-c1ccnc(C(C)(C)C(F)(F)F)c1 : 103

----------
- System: 233499-124-R-J3-PDC spheroids with HUVEC/MSC, viability
- EXPERIMENT DESCRIPTION: Anticancer human tumor 233499-124-R-J3-PDC cell line growth inhibition [PI3K];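 note: spheroids exposed to agents for seven days before readout; percent viability relative to DMSO vehicle control taken as 100%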
- SETUP CONDITIONS: second compound 0.01 µM; first compound 3.16 µM; hits give low values
REPORTED METRIC: viability, T/C (%)
Dear colleague, please return just the value in %, with no unit written.

Reported viability, T/C of Cn1ncc(Cl)c1-c1cc(C(=O)NC(CN)Cc2cccc(F)c2)sc1Cl (stereo not drawn) + CC(Nc1ccc2c(c1)OCCn1cc(N3C(=O)OCC3C(F)F)nc1-2)C(N)=O : 53.3

Reported viability, T/C of CC1(C)CCC(Nc2ncc(C(F)(F)F)c(-c3c[nH]c4c(P(C)(C)=O)c(C#N)ccc34)n2)CN1 (stereo not drawn) + CC(Nc1ccc2c(c1)OCCn1cc(N3C(=O)OCC3C(F)F)nc1-2)C(N)=O : 22.7

Reported viability, T/C of C=CC(=O)N1CCN(c2nc(=O)n(-c3c(C)ccnc3C(C)C)c3nc(-c4c(O)cccc4F)c(F)cc23)C(C)C1 (stereo not drawn) + CC(Nc1ccc2c(c1)OCCn1cc(N3C(=O)OCC3C(F)F)nc1-2)C(N)=O : 97.5

Reported viability, T/C of CNC(=O)c1ccc(N2C(=S)N(c3ccc(C#N)c(C(F)(F)F)c3)C(=O)C2(C)C)cc1F + COc1c(OCCCN2CCOCC2)ccc2c3n(c(=NC(=O)c4cnc(N)nc4)nc12)CCN3 : 89.9

Reported viability, T/C of CCCS(=O)(=O)Nc1ccc(F)c(C(=O)c2c[nH]c3ncc(-c4ccc(Cl)cc4)cc23)c1F + CC(Nc1ccc2c(c1)OCCn1cc(N3C(=O)OCC3C(F)F)nc1-2)C(N)=O : 84.9

Reported viability, T/C of CC1(C)CCC(CN2CCN(c3ccc(C(=O)NS(=O)(=O)c4ccc(NCC5CCOCC5)c([N+](=O)[O-])c4)c(Oc4cnc5[nH]ccc5c4)c3)CC2)=C(c2ccc(Cl)cc2)C1 + COc1c(OCCCN2CCOCC2)ccc2c3n(c(=NC(=O)c4cnc(N)nc4)nc12)CCN3 : 101

Reported viability, T/C of Cn1ncc(Cl)c1-c1cc(C(=O)NC(CN)Cc2cccc(F)c2)sc1Cl (stereo not drawn) + COc1c(OCCCN2CCOCC2)ccc2c3n(c(=NC(=O)c4cnc(N)nc4)nc12)CCN3 : 46.8

Reported viability, T/C of CC1(C)CCC(Nc2ncc(C(F)(F)F)c(-c3c[nH]c4c(P(C)(C)=O)c(C#N)ccc34)n2)CN1 (stereo not drawn) + COc1c(OCCCN2CCOCC2)ccc2c3n(c(=NC(=O)c4cnc(N)nc4)nc12)CCN3 : 25.4
